Values were extracted from the NIST ThermoML archive (doi:10.1021/je2002368).

Reported viscosity values are given for each entry in this list.
# condition_label: 298.15 K; 101.33 kPa; Liquid; Concentric cylinders viscometry
Response body: numeric value in mPa·s, unit text excluded.

Example entries and their recorded answers appear below.
>  <compound>
CCn1cc[n+](C)c1.NCC(=O)[O-] [1-ethyl-3-methylimidazolium ammonioacetate]

>  <meas_value>
61.51

$$$$
>  <compound>
CCn1cc[n+](C)c1.O=C([O-])[C@@H]1CCCN1 [1-ethyl-3-methyl-1H-imidazolium L-prolinate]

>  <meas_value>
426.12

$$$$
>  <compound>
CCn1cc[n+](C)c1.C[C@H](N)C(=O)[O-] [1-ethyl-3-methylimidazolium L-alaninate]

>  <meas_value>
171.19

$$$$

Let us examine a further case.
[in] Please look up its viscosity: CC[n+]1ccn(C)c1.N[C@@H](CO)C(=O)[O-] [3-ethyl-1-methyl-1H-imidazolium L-serinate]
[out] 410.86
